Assay: Therapeutic index, ratio of LD50 for toxicity in rabbit to HD50 for anesthetic activity in rabbit assessed as concentration required to induce hypnotic effect
Settings: read-out: TI
reported.property: selectivity ratio
Answers are plain numbers.

Some compounds with recorded selectivity ratio:
CCOc1cc(CC(=O)OC(C)C)ccc1OCC(=O)N1CCOCC1 = 15.2
CCOC(=O)Cc1ccc(OCC(=O)N2CCOCC2)c(OCC)c1 = 17.3
CCCOC(=O)Cc1ccc(OCC(=O)N2CCOCC2)c(OCC)c1 = 16.6

# next compound below
For record CC(C)c1cccc(C(C)C)c1O the listed selectivity ratio is 5.4

###

Biological target: GABA-A receptor; anion channel (Homo sapiens) (UniProt P14867+P47870+P18507+P28472+P48169+Q99928+Q9UN88+P34903+O00591+O14764+Q8N1C3+P18505+P78334+P47869+P31644+Q16445)
Experiment: Inhibition of GABAA receptor (unknown origin) at 50 uM by radioligand receptor binding assay relative to control
Format: protein-complex assay
Please go through the items and note down their inhibition.
Numbers only, in %.

Some molecules with recorded inhibition:
COc1cc(CC(=O)OC(C)C)ccc1OCC(=O)N1CCCC1 = 55.6
CCOc1cc(CC(=O)OC(C)C)ccc1OCC(=O)N1CCN(C(=O)OC(C)(C)C)CC1 = 29.3

Quick one: give me inhibition for each item below, same order please.
1. CCOC(=O)Cc1ccc(OCC(=O)N2CCNCC2)c(OCC)c1
2. CCCOC(=O)Cc1ccc(OCC(=O)N2CCN(C(=O)OC(C)(C)C)CC2)c(OCC)c1
3. CCOC(=O)Cc1ccc(OCC(=O)N2CCOCC2)c(OCC)c1
4. CCOc1cc(CC(=O)OC(C)C)ccc1OCC(=O)N1CCOCC1

[65.2, 33.4, 62.8, 76.8]

Quick one: give me inhibition for each item below, same order please.
1. CCOC(=O)Cc1ccc(OCC(=O)N2CCOCC2)c(OC)c1
2. CCCOC(=O)Cc1ccc(OCC(=O)N2CCCC2)c(OCC)c1
3. CCOC(=O)Cc1ccc(OCC(=O)N2CCCC2)c(OC)c1
4. CCCOC(=O)Cc1ccc(OCC(=O)N2CCOCC2)c(OCC)c1
5. CCOC(=O)Cc1ccc(OCC(=O)N2CCCC2)c(OCC)c1
6. CCCOC(=O)Cc1ccc(OCC(=O)N2CCNCC2)c(OCC)c1
7. COc1cc(CC(=O)OC(C)C)ccc1OCC(=O)N1CCOCC1
8. COc1cc(CC(=O)OC(C)C)ccc1OCC(=O)N1CCN(C(=O)OC(C)(C)C)CC1

52.9
47.8
48.8
64.3
26.5
23.1
35.7
69.7

Quick one: give me inhibition for each item below, same order please.
1. COc1cc(CC(=O)OC(C)C)ccc1OCC(=O)N1CCNCC1
2. CCOC(=O)Cc1ccc(OCC(=O)N2CCN(C(=O)OC(C)(C)C)CC2)c(OCC)c1
3. CCCOC(=O)Cc1ccc(OCC(=O)N2CCCC2)c(OC)c1

1: 57.8; 2: 45.2; 3: 72.5

Numbers sourced from ChEMBL document CHEMBL5241136.
